Give measured IC50 for each item. Keep answers brief.
SUBJECT OF TEST: S. aureus RNase P (RnpA + rnpB) (Staphylococcus aureus)
Construct: hexahistidine (His6) (N); made in house; host or cells: E. coli BL21 (DE3), plasmid pEXP5-nt
Sequence (P0A0H5 whole entry): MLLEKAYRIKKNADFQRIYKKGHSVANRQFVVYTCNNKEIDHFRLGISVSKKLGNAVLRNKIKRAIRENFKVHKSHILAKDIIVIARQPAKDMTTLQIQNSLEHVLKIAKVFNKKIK
ASSAY INFO: RnpA-dependent RNase P in vitro ptRNA^Tyr processing assay
Type: biochemical
CONDITION PARAMETERS: SAR figures; in vitro ptRNA^Tyr processing; read-out: pIC50 = processing IC50 (converted)
Only the number, expressed in µM, is required.

[in] // lookup IC50 for `O=C(Nc1cccc(Cl)c1)c1c(NC(=O)C(F)(F)F)sc2c1CCCCC2`
[out] 7

[in] Further, for `Cc1ccc(NC(=O)c2c(NC(=O)C(F)(F)F)sc3c2CCCCC3)cc1` ?
[out] 80

[in] Further, for `O=C(Nc1cc(Cl)cc(Cl)c1)N1CCCCC1` ?
[out] 300

[in] Further, for `COc1ccc(NC(=O)c2c(NC(=O)C(F)(F)F)sc3c2CCCCC3)cc1` ?
[out] 22
